Source: PubChem BioAssay (NCI)

test system: DMS 273 small cell lung; experiment: NCI tumour cell line growth inhibition, 48 h
# TGI per entry
ENDPOINT_LABEL: TGI

In [3]: df
Out[3]:
                                   compound  endpoint_label  recorded_value
0  NC(CCC(=O)NC(CSC(=O)N(O)c1ccc(Br)cc1)C(=O)NCC(=O)O)C(=O)O (stereo not given)             TGI        > 100 µM
1  COC(=O)/C=C/C1C(C(=O)OC)C2(C(=O)OC)CCC1(C(=O)OC)N2 (stereo not given)             TGI        > 100 µM
2  O=C(C[n+]1ccccc1)NNC(=O)/C(=C/c1ccc2c(c1)OCO2)NC(=O)c1ccccc1             TGI       > 69.8 µM
3  N#CC(C(=O)/C(=N/Nc1nc(=S)[nH]n1N)C(C#N)c1ccccc1)c1ccccc1 (stereo not given)             TGI        > 100 µM
4                 CC(C)(C)N1CC2(CCCCC2)C1=O             TGI        > 100 µM
